target: T1, CD22 on cynomolgus monkey peripheral blood B cells (cynomolgus monkey (Macaca fascicularis)); assay: FACS, cynomolgus PBMC, CD20+ B cells, antibody 10 nM
T1 construct: whole, on cells; also called cynomolgus monkey B cells
Please respond with reported Proportion of chimeric antibody positive cells to B cells (%) for every item in the list.

Some binders with known Proportion of chimeric antibody positive cells to B cells (%) results, for comparison:
INSERT INTO assay_data (binder, experimental_value) VALUES
  ('F2.151.13 (antibody, human IgG1, lambda, V domains shown, human-murine chimeric IgG1 lambda) VH: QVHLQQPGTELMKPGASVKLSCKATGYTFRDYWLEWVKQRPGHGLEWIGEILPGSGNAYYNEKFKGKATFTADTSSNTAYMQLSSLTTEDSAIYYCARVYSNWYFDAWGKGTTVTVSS VL: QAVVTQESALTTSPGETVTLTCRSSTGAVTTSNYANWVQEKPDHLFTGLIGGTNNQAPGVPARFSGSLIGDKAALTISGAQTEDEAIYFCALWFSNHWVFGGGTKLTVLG', '48%'),
  ('F1.216.2 (antibody, human IgG1, kappa, V domains shown, human-murine chimeric IgG1 kappa) VH: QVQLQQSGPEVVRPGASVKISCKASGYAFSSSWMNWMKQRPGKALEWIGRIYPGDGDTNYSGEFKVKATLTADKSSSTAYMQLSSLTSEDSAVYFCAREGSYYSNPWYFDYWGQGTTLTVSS VL: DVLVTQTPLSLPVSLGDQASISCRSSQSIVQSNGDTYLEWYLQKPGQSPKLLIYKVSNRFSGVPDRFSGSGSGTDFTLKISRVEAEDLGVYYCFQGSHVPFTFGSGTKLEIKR', '25%');

Continue with the binder presented below.
### Prompt // lookup Proportion of chimeric antibody positive cells to B cells (%) for F2.121.9 (antibody, human IgG1, lambda, V domains shown, human-murine chimeric IgG1 lambda) VH: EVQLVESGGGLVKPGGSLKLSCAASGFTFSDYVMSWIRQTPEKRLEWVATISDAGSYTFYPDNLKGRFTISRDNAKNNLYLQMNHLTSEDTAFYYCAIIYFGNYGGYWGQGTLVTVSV VL: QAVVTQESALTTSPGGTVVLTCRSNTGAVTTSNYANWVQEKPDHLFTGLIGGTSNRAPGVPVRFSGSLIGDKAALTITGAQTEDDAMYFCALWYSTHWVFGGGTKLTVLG
### Response 56%
